system: MRSA Strain 5912; assay: MBC, plating of wells without growth; format: cell-based; conditions: Staphylococcus aureus
In this section we review reported MBC values for a set of compounds.
Just the number please, in µM, no unit attached.

Below: 2 compounds and their reported MBC.
- structure-as-smiles: "Cl.NC(COc1ccc(Cl)c(Cl)c1)COc1ccc(Cl)c(Cl)c1"
  endpoint-result: 5.99
- structure-as-smiles: "NC(COc1ccc2ccccc2c1)COc1ccc2ccccc2c1"
  endpoint-result: 13.2

Please look at the following compound next.
Lookup: If you can, please state the reported MBC value of NC(COc1cccc2ccccc12)COc1cccc2ccccc12 .
Found: 6.58

Where do the numbers come from? From paper PMC6855212.
